Tested on: NCI-H522
Test: NCI tumour cell line growth inhibition, 48 h
Calls of active or inactive are those of the source. Cut-off read from the data, not from the text of the source: active = GI50 up to about 1.1 µM and inactive = higher.
Classes used: active, inactive

> print(dat)
                                   compound  labelclass
1  CCOC(=O)/C=C(/C(=O)OCC)n1ccc(=O)n(Cc2cnnn2CCCCOC(C)=O)c1=O    inactive
2  Cn1c2c([N+](=O)[O-])cccc2c(=O)c2c(O)cc3c(c21)C=CC(C)(C)O3    inactive
3  COc1cc2cc(C(=O)N3CC(CCl)c4c3cc([N+](C)(C)Cc3ccc([N+](=O)[O-])n3C)c3ccccc43)[nH]c2c(OC)c1OC (stereo not drawn)      active
